test system: OVCAR-4 ovarian; experiment: NCI-60 one-dose screen, 48 h; settings: 10 µM unless noted
About 83,000 compounds went through this panel and 20% of them were active in at least one assay; those are over-represented in the sample as a whole. The source made the active and inactive calls. The calls were made as follows: active = growth percent below 10; inactive = the rest.
Labels: active, inactive

>>> category("COc1ccc(C(=O)COc2ccc(/C=C3\\COc4ccc(OC)cc4C3=O)cc2)cc1")
"inactive"
>>> category("Cc1cc(N2CCOCC2)nc(NCc2cc(Nc3ccnc4cc(Cl)ccc34)ccc2F)n1")
"active"
>>> category("O=C(O)c1ccc(N=CC(=O)c2ccc(-c3ccccc3)cc2)cc1")
"inactive"
>>> category("FC(F)(F)c1nc2c(NCc3ccc(-c4ccccc4)cc3)cccc2[nH]1")
"inactive"
>>> category("CCOC(=O)c1csc(NC(=O)COc2cccc(/C=C3\\CSc4ccccc4C3=O)c2)n1")
"inactive"
>>> category("O=C1c2ccccc2OC=C(c2ccccc2)N1CCCCNc1ccc(S(=O)(=O)Nc2ncccn2)cc1")
"inactive"
>>> category("CN(C)c1ccc(N=Nc2ccc(Br)cn2)c(O)c1")
"active"
>>> category("C#CCOc1ccc2ncnc(Nc3cccc(CNC(=O)C=C)c3)c2c1")
"inactive"
>>> category("CCNc1ncnc2c1cnn2C1CCCO1 (stereo unspecified)")
"inactive"
>>> category("O=C(/C=C/c1ccccc1)c1ccc(O)c(CN2CCN(c3cc4c(cc3F)c(=O)c(C(=O)O)cn4C3CC3)CC2)c1")
"inactive"
>>> category("Clc1ccc2c(NCCNc3nc(N4CCCCC4)nc4ccccc34)ccnc2c1")
"inactive"
>>> category("COc1ccc(/C=C/c2nc(-c3n[nH]c(=O)n3-c3ccccc3)c3ccccc3n2)cc1")
"inactive"
>>> category("Cc1cc(N2CCN(c3ccnc4cc(Cl)ccc34)CC2)nc(N2CCOCC2)n1")
"inactive"
>>> category("O=[N+]([O-])c1cnc(N2CCN(CC3CC3)CC2)nc1N1CCN(CC2CC2)CC1")
"inactive"
>>> category("COc1ccc(-c2nc3ccc(-c4nc5ccc(N6CCN(C)CC6)cc5[nH]4)cc3[nH]2)cc1OC")
"inactive"
>>> category("CCCCn1c(-c2ccc(C(=O)O/N=C(\\N)c3ccc4c(c3)OCO4)cc2)nc(-c2ccccc2)c1-c1ccccc1")
"inactive"
>>> category("O=C(O)c1c(=O)cccc2ssc12")
"active"
>>> category("CCC(=O)c1ccc(Cl)s1")
"inactive"
>>> category("COc1ccc(-n2nc(C)c3c(Nc4ccc(NC(=O)Nc5ccc(Cl)c(C(F)(F)F)c5)cc4)ncnc32)cc1")
"inactive"
>>> category("CS(=O)(=O)c1ccc(-n2nc(-c3ccc(Br)cc3)c3ccccc3c2=O)cc1")
"inactive"
>>> category("COc1ccc2c(c1)CC/C(=C\\c1cncc(Br)c1)C2=O")
"inactive"

Data origin: PubChem BioAssay (NCI)
